Hello, the source for this data is paper PMC9495826, in case you need it.

Hemolysis HC50 (concentration of peptide giving 50% hemolysis) reference
# Test system: erythrocytes
# assay.details: Hemolysis assay
# Type: cell-based
# measurement.context: 20 h
No end group written: not given here.
assay.endpoint: Hemolysis HC50 (concentration of peptide giving 50% hemolysis) (µg/mL)

substance | lt.gt.eq | numeric.readout
KLKLKLKLKLKLKLKLKLKLKLKL-NH2 [KL24] | < | 1
KLKLKLKLKLK-NH2 [KL11] | > | 256
KLKLKLKLKLKLKLKLKLKL-NH2 [KL20] | < | 1
KLKLKL-NH2 [KL6] | > | 256
KLKLKLKLKLKLKLKLKLKLKL-NH2 [KL22] | < | 1
KLKLKLKLKLKLK-NH2 [KL13] | = | 9
KLKLKLKLKLKL-NH2 [KL12] | = | 8
LKLKLKLKLK-NH2 [LK10] | = | 256
KLKLKLKLK-NH2 [KL9] | > | 256
LKLKLKLKLKLKL-NH2 [LK13] | = | 2
KLKLKLKLKLKLKLKLKL-NH2 [KL18] | = | 1
LKLKLKLKL-NH2 [LK9] | = | 145
KLKLKLKLKLKLKL-NH2 [KL14] | = | 1
KLKLKLKLKL-NH2 [KL10] | = | 47
KLKLKLKL-NH2 [KL8] | > | 256
LKLKLKLKLKLKLKL-NH2 [LK15] | < | 1
KLKLKLKLKLKLKLKL-NH2 [KL16] | = | 2
LKLKLKLKLKL-NH2 [LK11] | = | 3
KLKLKLKLKLKLKLK-NH2 [KL15] | = | 2

----------
# reported MIC B. subtilis; entries follow
# System: Bacillus subtilis (DSM 347)
# Type: cell-based
# measurement.context: DSM 347, 20 h
# Procedure: The antimicrobial activity of the KL peptides was determined with a MIC assay. […] Antimicrobial activity was measured by a minimal inhibitory concentration (MIC) assay, carried out with Gram-positive Bacillus subtilis (DSM 347) and Staphylococcus xylosus (DSM 20287) and with Gram-negative Escherichia coli (DSM 1116) and Enterobacter helvet-icus (DSM 18390). […]
No end group written: not given here.

substance | unit.symbol | lt.gt.eq | MIC B. subtilis
KLKLKLKLKL-NH2 [KL10] | µg/mL | = | 2
KLKLKL-NH2 [KL6] | µg/mL | > | 256
KLKLKLKLK-NH2 [KL9] | µg/mL | = | 16
LKLKLKLKLKLKLKL-NH2 [LK15] | µg/mL | = | 16
KLKLKLKLKLKL-NH2 [KL12] | µg/mL | = | 2
KLKLKLKLKLKLKLKL-NH2 [KL16] | µg/mL | = | 16
LKLKLKLKL-NH2 [LK9] | µg/mL | = | 4
LKLKLKLKLKL-NH2 [LK11] | µg/mL | = | 2
KLKLKLKLKLKLKLKLKLKLKLKL-NH2 [KL24] | µg/mL | = | 32
KLKLKLKLKLKLKLK-NH2 [KL15] | µg/mL | = | 4
LKLKLKLKLKLKL-NH2 [LK13] | µg/mL | = | 8

----------
# Tested on: Bacillus subtilis (DSM 347)
# Type: cell-based
# measurement.context: DSM 347, 20 h
No end group written: not given here.
Form field: MIC B. subtilis (one value per entry).
assay.endpoint: MIC B. subtilis (µg/mL)

substance | study.system | numeric.readout
LKLKLKLKLK-NH2 [LK10] | Bacillus subtilis (DSM 347) | 4
KLKLKLKLKLKLKLKLKLKLKL-NH2 [KL22] | Bacillus subtilis (DSM 347) | 32
KLKLKLKLKLKLKLKLKL-NH2 [KL18] | Bacillus subtilis (DSM 347) | 32
KLKLKLKLKLKLKLKLKLKL-NH2 [KL20] | Bacillus subtilis (DSM 347) | 32
KLKLKLKLKLK-NH2 [KL11] | Bacillus subtilis (DSM 347) | 4
KLKLKLKLKLKLK-NH2 [KL13] | Bacillus subtilis (DSM 347) | 2
KLKLKLKL-NH2 [KL8] | Bacillus subtilis (DSM 347) | 16
KLKLKLKLKLKLKL-NH2 [KL14] | Bacillus subtilis (DSM 347) | 4

----------
The entries below come with measured MIC S. xylosus values attached.
# Test system: Staphylococcus xylosus (DSM 20287)
# Type: cell-based
# measurement.context: DSM 20287, 20 h
No end group written: not given here.
assay.endpoint: MIC S. xylosus (µg/mL)

substance | study.system | numeric.readout
KLKLKLKLKLKLKLKLKL-NH2 [KL18] | Staphylococcus xylosus (DSM 20287) | 8
LKLKLKLKLKLKLKL-NH2 [LK15] | Staphylococcus xylosus (DSM 20287) | 16
LKLKLKLKLKLKL-NH2 [LK13] | Staphylococcus xylosus (DSM 20287) | 4
KLKLKL-NH2 [KL6] | Staphylococcus xylosus (DSM 20287) | 256
KLKLKLKLKLKLKL-NH2 [KL14] | Staphylococcus xylosus (DSM 20287) | 4
KLKLKLKLKLKLK-NH2 [KL13] | Staphylococcus xylosus (DSM 20287) | 1
LKLKLKLKL-NH2 [LK9] | Staphylococcus xylosus (DSM 20287) | 2
LKLKLKLKLK-NH2 [LK10] | Staphylococcus xylosus (DSM 20287) | 1
KLKLKLKLKLKLKLKLKLKLKLKL-NH2 [KL24] | Staphylococcus xylosus (DSM 20287) | 8
KLKLKLKLKLK-NH2 [KL11] | Staphylococcus xylosus (DSM 20287) | 1
KLKLKLKLKLKLKLK-NH2 [KL15] | Staphylococcus xylosus (DSM 20287) | 2
LKLKLKLKLKL-NH2 [LK11] | Staphylococcus xylosus (DSM 20287) | 1
KLKLKLKLKLKLKLKL-NH2 [KL16] | Staphylococcus xylosus (DSM 20287) | 8
KLKLKLKLK-NH2 [KL9] | Staphylococcus xylosus (DSM 20287) | 2
KLKLKLKL-NH2 [KL8] | Staphylococcus xylosus (DSM 20287) | 8
